target: Glutamate NMDA receptor; Grin1/Grin2c (Rattus norvegicus, UniProt Q00961+P35439); assay: Potentiation of rat recombinant GluN1/GluN2C expressed in Xenopus laevis oocytes assessed as increase in glutamate/glycine-induced current response by two-electrode voltage clamp technique relative to control
Sequence (Q00961 whole entry, other chains not shown): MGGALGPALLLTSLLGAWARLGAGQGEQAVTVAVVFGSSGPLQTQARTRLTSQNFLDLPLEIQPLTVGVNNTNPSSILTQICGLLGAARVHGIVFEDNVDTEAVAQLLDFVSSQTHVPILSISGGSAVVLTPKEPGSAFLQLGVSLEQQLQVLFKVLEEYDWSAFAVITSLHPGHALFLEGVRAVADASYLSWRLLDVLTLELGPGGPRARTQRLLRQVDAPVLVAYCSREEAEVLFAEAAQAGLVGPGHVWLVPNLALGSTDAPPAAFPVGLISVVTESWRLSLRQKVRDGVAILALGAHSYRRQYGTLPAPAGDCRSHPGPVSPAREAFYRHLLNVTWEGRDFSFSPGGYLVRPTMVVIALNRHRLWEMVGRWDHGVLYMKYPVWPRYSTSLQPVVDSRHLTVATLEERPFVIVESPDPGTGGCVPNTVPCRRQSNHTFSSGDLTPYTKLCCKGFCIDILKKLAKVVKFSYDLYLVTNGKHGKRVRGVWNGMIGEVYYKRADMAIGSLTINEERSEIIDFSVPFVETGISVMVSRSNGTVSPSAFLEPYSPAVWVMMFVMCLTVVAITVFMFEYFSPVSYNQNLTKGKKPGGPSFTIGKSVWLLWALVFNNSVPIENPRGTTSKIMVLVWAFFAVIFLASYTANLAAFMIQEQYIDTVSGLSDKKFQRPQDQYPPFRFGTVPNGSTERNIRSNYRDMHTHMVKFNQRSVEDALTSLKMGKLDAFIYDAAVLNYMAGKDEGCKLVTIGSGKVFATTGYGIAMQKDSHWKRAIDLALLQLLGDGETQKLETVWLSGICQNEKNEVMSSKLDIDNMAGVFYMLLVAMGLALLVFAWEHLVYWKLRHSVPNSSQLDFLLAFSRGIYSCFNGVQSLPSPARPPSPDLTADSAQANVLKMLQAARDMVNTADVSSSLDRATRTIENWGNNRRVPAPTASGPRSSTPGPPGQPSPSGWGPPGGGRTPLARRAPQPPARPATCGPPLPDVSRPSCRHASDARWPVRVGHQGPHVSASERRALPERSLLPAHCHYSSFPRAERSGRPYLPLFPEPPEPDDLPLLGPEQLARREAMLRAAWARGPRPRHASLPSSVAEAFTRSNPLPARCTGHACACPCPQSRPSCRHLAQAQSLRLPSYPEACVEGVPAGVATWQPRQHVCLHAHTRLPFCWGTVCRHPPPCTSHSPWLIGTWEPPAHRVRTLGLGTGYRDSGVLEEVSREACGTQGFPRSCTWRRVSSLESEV
Reported property: pEC50
Entry type: numeric. Quantity: pEC50, the -log10 of concentration in molar units.

Query: For the molecule shown here, COC(=O)c1ccc(C2C(C(C)=O)=C(O)C(=O)N2CCc2c(C)[nH]c3ccccc23)cc1 (stereo unspecified) , give the reported pEC50.
Response: 4.80

meta.source: BindingDB's records for doi:10.1021/jm401695d
